- Test target: Lysosomal acid glucosylceramidase (Homo sapiens, UniProt P04062)
- Measurement protocol: Activation of wild type recombinant human lysosomal beta-glucocerebrosidase using 4-methylumbelliferyl-beta-D-glucopyranoside as substrate preincubated for 5 mins followed by substrate addition and measured after 30 mins by fluorescence assay
- Condition summary: read-out: AC50
Some compounds, each annotated with its measured AC50.
State the answer as a number, implicitly in µM.

Some solved cases for reference:
CN(Cc1nc2ccccc2s1)c1nc(-c2cccnc2)nc2ccccc12    6.9
c1ccc(OC2CCN(c3nc(-c4cccnc4)nc4ccccc34)C2)cc1 (stereo not drawn)    1.17
CN(Cc1ccc2c(c1)OCCO2)c1nc(-c2cccnc2)nc2ccccc12    4.88
CN(CCCCc1ccccc1)c1nc(-c2cccnc2)nc2ccccc12    3.99

Form field AC50 for item CN(Cc1ccc2nsnc2c1)c1nc(-c2cccnc2)nc2ccccc12 on Lysosomal acid glucosylceramidase (Homo sapiens, UniProt P04062): 1.84

Form field AC50 for item c1cncc(-c2nc(N3CCc4c([nH]c5ccccc45)C3)c3ccccc3n2)c1 on Lysosomal acid glucosylceramidase (Homo sapiens, UniProt P04062): 4.27

Form field AC50 for item CN(c1nc(-c2cccnc2)nc2ccccc12)C1CCCCC1 on Lysosomal acid glucosylceramidase (Homo sapiens, UniProt P04062): 2.36

Form field AC50 for item CN(Cc1nc2ccccc2o1)c1nc(-c2cccnc2)nc2ccccc12 on Lysosomal acid glucosylceramidase (Homo sapiens, UniProt P04062): 16.1

* * *

- Test target: Lysosomal acid glucosylceramidase (Homo sapiens)
- Sequence (P04062 whole entry): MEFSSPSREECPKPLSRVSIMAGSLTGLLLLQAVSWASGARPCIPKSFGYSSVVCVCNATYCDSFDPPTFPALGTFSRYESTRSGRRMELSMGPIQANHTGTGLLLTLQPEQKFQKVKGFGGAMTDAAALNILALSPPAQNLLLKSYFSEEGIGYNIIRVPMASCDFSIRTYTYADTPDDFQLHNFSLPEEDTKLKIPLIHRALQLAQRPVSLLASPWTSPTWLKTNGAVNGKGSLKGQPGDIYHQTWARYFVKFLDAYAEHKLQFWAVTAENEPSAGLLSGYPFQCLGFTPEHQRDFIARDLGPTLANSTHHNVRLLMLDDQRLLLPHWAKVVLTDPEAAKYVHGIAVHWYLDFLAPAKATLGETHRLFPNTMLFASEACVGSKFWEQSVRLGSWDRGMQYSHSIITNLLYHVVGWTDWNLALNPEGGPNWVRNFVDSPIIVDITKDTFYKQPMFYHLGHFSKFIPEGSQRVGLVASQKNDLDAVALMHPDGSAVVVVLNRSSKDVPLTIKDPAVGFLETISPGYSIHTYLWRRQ
- Measurement protocol: Activation of wild type recombinant human lysosomal beta-glucocerebrosidase using 4-methylumbelliferyl-beta-D-glucopyranoside as substrate preincubated for 5 mins followed by substrate addition and measured after 30 mins by fluorescence assay
- Condition summary: read-out: AC50
Recorded endpoint: AC50 (µM)
State the answer as a number, implicitly in µM.

CN(CCOc1ccccc1)c1nc(-c2cncnc2)nc2ccccc12    0.89
CN(CCOc1ccccc1)c1nc(-c2ccncc2)nc2ccccc12    2.89
CC(COc1ccccc1)N(C)c1nc(-c2cccnc2)nc2ccccc12 (stereo not drawn)    7.52
c1ccc(O[C@@H]2CCCN(c3nc(-c4cccnc4)nc4ccccc34)C2)cc1    3.65
c1ccc(OCCNc2nc(-c3cccnc3)nc3ccccc23)cc1    1.56

Looking up CN(c1nc(-c2cccnc2)nc2ccccc12)C1CCCC1 , I found its AC50 recorded as 6.36

Looking up CCN(CCOc1ccccc1)c1nc(-c2cccnc2)nc2ccccc12 , I found its AC50 recorded as 5.38
